Known IC50 of a selection of compounds
target: cGMP-PDE (Homo sapiens); assay: Inhibitory effect on cGMP-PDE (PDE IC isolated from human platelets, 3H-cGMP substrate); conditions: 0.2 μM 3H-cGMP, pH 8.0, 2.5% DMSO
Where a name gives a salt, the structure may show the parent alone.

Compound	IC50
c1ccc(CNc2nc(-n3ccnc3)ncc2-c2nccs2)cc1 [1(o), hydrochloride]	0.12 µM
c1ccc(CNc2nc(-n3ccnc3)ncc2Cc2ccccc2)cc1	1 µM
COc1ccc(Cc2cnc(-n3ccnc3)nc2NCc2ccccc2)cc1	0.78 µM
c1csc(-c2cnc(-n3ccnc3)nc2NCc2cccc3ccccc23)c1 [1(r)]	0.35 µM
c1coc(CNc2nc(-n3ccnc3)ncc2-c2cccs2)c1 [1(u), hydrochloride]	1 µM
c1ccc(CNc2nc(-n3ccnc3)ncc2COc2ccccc2)cc1 [1(k), dihydrochloride]	0.76 µM
Cc1cnc(-n2ccnc2)nc1NCc1ccccc1 [1(e)]	18 µM
COc1cccc(Cc2cnc(-n3ccnc3)nc2NCCOCCO)c1	21 µM
COc1ccc(Cc2cnc(-n3ccnc3)nc2NCCOCCO)cc1	0.7 µM
COCCNc1nc(-n2ccnc2)ncc1Cc1cccc(OC)c1	3.8 µM

====

target: cGMP-PDE (Homo sapiens); assay: Inhibitory effect on cGMP-PDE (PDE IC isolated from human platelets, 3H-cGMP substrate); conditions: 0.2 μM 3H-cGMP, pH 8.0, 2.5% DMSO
pIC50: −log10 of the molar value. Structures can show the parent of a compound that is named as a salt.
Readout: pIC50

Compound	Observed Value
c1ccc(CNc2ccnc(-n3ccnc3)n2)cc1 [1(a)]	4.42
CCc1cnc(-n2ccnc2)nc1NCc1ccccc1 [1(c)]	5.60
c1csc(CNc2nc(-n3ccnc3)ncc2-c2cccs2)c1 [1(v), hydrochloride]	6.51
c1ccc(CONc2nc(-n3ccnc3)ncc2-c2cccs2)cc1 [1(y), hydrochloride]	5.57
COCCNc1nc(-n2ccnc2)ncc1Cc1ccc(OC)cc1 [1(i)]	5.46
Clc1ccc(CNc2nc(-n3ccnc3)ncc2-c2cccs2)cc1 [1(z), hydrochloride]	7.21
OCCOCCNc1nc(-n2ccnc2)ncc1-c1cccs1 [1(q), hydrochloride]	4.90
C=C(Cl)c1cnc(-n2ccnc2)nc1NCc1ccccc1 [1(m), hydrochloride]	5.90
COc1cccc(CNc2nc(-n3ccnc3)ncc2-c2cccs2)c1 [1(t), hydrochloride]	6.64
COCCNc1nc(-n2ccnc2)ncc1-c1cccs1 [1(x), hydrochloride]	5.22

The measured values listed here are drawn from patent US5525604A.
